As shown below, each of these variants has a reported protein stability index value.
B1: SMG5 (parent)
chain: TNPDLIIVCAQSSQSLWNRLSVLL

# Variants of: B1
# PROCEDURE SUMMARY: protein stability index of a GFP-peptide fusion (GPS, HEK-293T) (PSI 1-6); higher = more stable;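 also: lentivirally expressed fusions sorted by FACS into six bins by GFP to DsRed ratio, PSI derived from sequencing read proportions per bin multiplied by bin number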
# MEASUREMENT PARAMETERS: c terminus: a fixed tail appended

Past entries and their recorded results:
S21W = 2.75
V22G = 1.81
R19Q = 2.95
L5A = 2.09
L23I = 2.27
L20Q = 2.08

Please turn your attention to the following entry.
Consider "V22E" . Its measured protein stability index is 1.91
